Exercise: for every item that follows, state its recorded IC50.
Target: purified human IDO protein (Homo sapiens, UniProt P14902, E119G/P110S)
Construct: 6-Histidine tag (C)
Sequence (P14902 whole entry P110S/E119G): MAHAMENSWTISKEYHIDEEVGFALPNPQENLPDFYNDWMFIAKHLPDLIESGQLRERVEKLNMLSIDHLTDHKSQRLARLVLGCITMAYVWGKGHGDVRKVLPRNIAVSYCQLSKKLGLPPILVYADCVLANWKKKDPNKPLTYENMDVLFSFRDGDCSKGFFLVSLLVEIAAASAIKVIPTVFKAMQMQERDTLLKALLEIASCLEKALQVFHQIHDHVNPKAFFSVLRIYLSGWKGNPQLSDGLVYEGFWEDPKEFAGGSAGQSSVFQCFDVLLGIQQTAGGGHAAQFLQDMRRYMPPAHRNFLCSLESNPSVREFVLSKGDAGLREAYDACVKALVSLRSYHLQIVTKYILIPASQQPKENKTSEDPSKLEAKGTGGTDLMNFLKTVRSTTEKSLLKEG
Experiment: Enzymatic IDO assay (kynurenine formation, absorbance at 480 nm)
Settings: recombinant human IDO, 200 μM L-tryptophan, pH 6.5; reported in ranges

Reference set (8 entries):
Compound	IC50
Oc1cc(Cl)ccc1-c1cnc[nH]1 [Compound 63, 5-chloro-2-(1H-imidazol-5-yl)phenol]	20 to 100 µM
Fc1cc(F)cc(-c2c[nH]cn2)c1 [Compound 59, 4-(3,5-difluorophenyl)-1H-imidazole]	20 to 100 µM
N#Cc1ccccc1COc1ccccc1-c1c[nH]cn1 [Compound 99]	100 to 500 µM
CNC(=O)CCC(C)(C)CCOc1ccccc1-c1c[nH]cn1 [Compound 38]	< 20 µM
Oc1ccc(O)c(-c2c[nH]cn2)c1 [Compound 21, 2-(1H-imidazol-4-yl)benzene-1,4-diol]	< 20 µM
O=CNCCOc1ccccc1-c1c[nH]cn1 [Compound 107]	100 to 500 µM
CNC(=O)CCCn1cncc1-c1ccccc1 [Compound 128]	100 to 500 µM
CC(C)(CCOc1ccccc1-c1c[nH]cn1)CCN1CCOCC1 [Compound 161]	20 to 100 µM

List reported IC50 for each of these compounds:
1. c1ccc(CCc2nc[nH]c2-c2ccccc2)cc1 [Compound 126, 4-phenethyl-5-phenyl-1H-imidazole]
2. Clc1ccc(Cn2cncc2-c2ccccc2)cc1 [Compound 54, 1-(4-chlorobenzyl)-5-phenyl-1H-imidazole]
3. N#Cc1ccccc1Cn1cncc1-c1ccccc1 [Compound 96]

Response:
1. 100 to 500 µM
2. 20 to 100 µM
3. 20 to 100 µM

---

Exercise: for every item that follows, state its recorded pIC50.
Target: purified human IDO protein (Homo sapiens, UniProt P14902, E119G/P110S)
Construct: 6-Histidine tag (C)
Assay: Enzymatic IDO assay (kynurenine formation, absorbance at 480 nm)
Details: recombinant human IDO, 200 μM L-tryptophan, pH 6.5; reported in ranges
pIC50: −log10 of the molar value.

Molecule	pIC50
Clc1ccc(COc2ccc(Br)cc2-c2c[nH]cn2)cc1 [Compound 49]	> 4.70
CC(C)(CCOc1ccccc1-c1c[nH]cn1)CCn1c(=O)c(F)cn([C@@H]2O[C@H](CO)[C@@H](O)[C@H]2O)c1=O [Compound 162]	> 4.70
CSc1ccccc1-c1c[nH]cn1 [Compound 1, 5-(2-(methylthio)phenyl)-1H-imidazole]	4.00 to 4.70
c1cnc(NCCCOc2ccccc2-c2cnc[nH]2)nc1 [Compound 98]	3.30 to 4.00

List reported pIC50 for each of these molecules:
1. CCOC(=O)CCn1cncc1-c1ccccc1 [Compound 122]
2. O=C(NCc1ccccc1-c1c[nH]cn1)c1ccccc1Cl [Compound 30]
3. CC(C)(C)COc1ccccc1-c1c[nH]cn1 [Compound 31, 4-(2-(neopentyloxy)phenyl)-1H-imidazole]
4. NS(=O)(=O)c1ccc(COc2ccccc2-c2c[nH]cn2)cc1 [Compound 46]

Response:
1: 3.30 to 4.00; 2: > 4.70; 3: > 4.70; 4: > 4.70

List reported pIC50 for each of these molecules:
1. COC(=O)c1ccc(-c2c[nH]cn2)cc1 [Compound 115, methyl 4-(1H-imidazol-4-yl)benzoate]
2. O=C(O)c1ccccc1-c1c[nH]cn1 [Compound 153, 2-(1H-imidazol-4-yl)benzoic acid]
3. c1ccc(-c2c[nH]cn2)c(OCC2CCCNC2)c1 (centres unmarked) [Compound 76]
4. Oc1ccc(C(F)(F)F)cc1-c1c[nH]cn1 [Compound 156]
5. NC(=O)COc1ccccc1-c1c[nH]cn1 [Compound 104, 2-(2-(1H-imidazol-4-yl)phenoxy)acetamide]

Response:
["3.30 to 4.00", "3.30 to 4.00", "4.00 to 4.70", "> 4.70", "3.30 to 4.00"]

List reported pIC50 for each of these molecules:
1. Clc1cccc(CCOc2ccccc2-c2c[nH]cn2)c1 [Compound 33]
2. CC(=O)N1CCCC(COc2ccccc2-c2c[nH]cn2)C1 (centres unmarked) [Compound 117]
3. c1ccc(CCn2cncc2-c2ccccc2)cc1 [Compound 81, 1-phenethyl-5-phenyl-1H-imidazole]
4. CC(C)(CCOc1ccccc1-c1cnc[nH]1)CCn1ccnc1 [Compound 163]
5. COc1ccccc1Cn1cncc1-c1ccccc1 [Compound 110]
6. Oc1c(Br)cccc1-c1cnc[nH]1 [Compound 35, 2-bromo-6-(1H-imidazol-5-yl)phenol]
7. Clc1cccc(COc2ccccc2-c2cnc[nH]2)c1 [Compound 29]

Response:
1. > 4.70
2. 3.30 to 4.00
3. 4.00 to 4.70
4. 3.30 to 4.00
5. 3.30 to 4.00
6. > 4.70
7. > 4.70

List reported pIC50 for each of these molecules:
1. COC(=O)Cn1cncc1-c1ccccc1 [Compound 105]
2. CNC(=O)c1cccc(CCOc2ccccc2-c2c[nH]cn2)c1 [Compound 50]
3. O=C(O)c1ccc(-c2c[nH]cn2)cc1 [Compound 119, 4-(1H-imidazol-4-yl)benzoic acid]
4. CNC(=O)c1ccc(CCOc2ccccc2-c2c[nH]cn2)cc1 [Compound 45]

Response:
["3.30 to 4.00", "> 4.70", "3.30 to 4.00", "> 4.70"]
